# credit: ChEMBL document CHEMBL3879901

Below, each of the molecules is paired with its reported IC50 value.
Assay system: PI3-kinase p110-alpha/p85-alpha (Homo sapiens)
Sequence (P27986 whole entry): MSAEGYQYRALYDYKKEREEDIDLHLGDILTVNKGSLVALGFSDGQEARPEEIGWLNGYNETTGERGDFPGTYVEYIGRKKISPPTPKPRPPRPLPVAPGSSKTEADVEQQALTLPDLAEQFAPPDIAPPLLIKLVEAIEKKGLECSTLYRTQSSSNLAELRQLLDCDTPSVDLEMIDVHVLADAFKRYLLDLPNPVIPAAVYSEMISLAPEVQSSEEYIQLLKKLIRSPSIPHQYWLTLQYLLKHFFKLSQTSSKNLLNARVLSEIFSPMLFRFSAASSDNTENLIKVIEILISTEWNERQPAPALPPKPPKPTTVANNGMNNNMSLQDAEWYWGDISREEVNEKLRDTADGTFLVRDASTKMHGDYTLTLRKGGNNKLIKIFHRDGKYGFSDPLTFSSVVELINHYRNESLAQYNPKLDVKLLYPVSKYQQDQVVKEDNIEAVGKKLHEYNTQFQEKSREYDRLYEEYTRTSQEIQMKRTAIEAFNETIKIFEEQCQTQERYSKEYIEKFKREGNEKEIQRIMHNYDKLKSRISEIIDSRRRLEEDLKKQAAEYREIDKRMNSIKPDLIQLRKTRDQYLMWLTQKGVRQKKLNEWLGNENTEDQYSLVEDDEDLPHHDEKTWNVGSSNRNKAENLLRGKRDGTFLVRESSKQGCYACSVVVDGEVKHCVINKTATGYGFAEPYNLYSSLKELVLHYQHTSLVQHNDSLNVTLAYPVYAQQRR
Sequence (P42336 whole entry): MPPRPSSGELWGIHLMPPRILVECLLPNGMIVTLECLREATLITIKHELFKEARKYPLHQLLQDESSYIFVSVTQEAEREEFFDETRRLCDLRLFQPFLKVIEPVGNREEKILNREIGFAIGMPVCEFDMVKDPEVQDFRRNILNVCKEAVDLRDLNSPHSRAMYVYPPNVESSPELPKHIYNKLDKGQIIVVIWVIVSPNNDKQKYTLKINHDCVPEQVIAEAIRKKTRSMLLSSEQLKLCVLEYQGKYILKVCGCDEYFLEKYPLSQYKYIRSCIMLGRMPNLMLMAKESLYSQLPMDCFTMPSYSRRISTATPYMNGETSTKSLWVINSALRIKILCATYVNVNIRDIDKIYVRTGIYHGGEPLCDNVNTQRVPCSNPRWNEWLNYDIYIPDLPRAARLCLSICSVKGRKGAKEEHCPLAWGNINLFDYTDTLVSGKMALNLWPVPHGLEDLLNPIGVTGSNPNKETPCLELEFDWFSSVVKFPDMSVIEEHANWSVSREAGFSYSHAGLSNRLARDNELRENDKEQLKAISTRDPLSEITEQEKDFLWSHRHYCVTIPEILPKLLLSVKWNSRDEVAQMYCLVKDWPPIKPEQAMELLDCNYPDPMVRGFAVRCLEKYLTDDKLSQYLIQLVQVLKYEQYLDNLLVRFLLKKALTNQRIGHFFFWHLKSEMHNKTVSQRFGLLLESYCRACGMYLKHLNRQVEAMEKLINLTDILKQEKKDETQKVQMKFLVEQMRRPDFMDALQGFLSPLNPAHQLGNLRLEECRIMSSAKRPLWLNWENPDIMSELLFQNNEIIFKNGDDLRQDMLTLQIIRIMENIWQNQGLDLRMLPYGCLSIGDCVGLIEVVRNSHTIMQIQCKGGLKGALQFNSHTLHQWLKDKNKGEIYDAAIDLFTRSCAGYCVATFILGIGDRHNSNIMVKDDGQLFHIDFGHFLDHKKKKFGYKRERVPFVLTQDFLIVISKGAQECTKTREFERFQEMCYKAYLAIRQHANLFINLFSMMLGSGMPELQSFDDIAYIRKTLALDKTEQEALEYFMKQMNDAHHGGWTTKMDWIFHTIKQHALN
Assay name: Inhibition of N-terminal His6-tagged recombinant full-length human p110alpha/untagged recombinant full length human p85alpha expressed in baculovirus infected Sf21 cells using phosphatidylinositol as substrate in presence of gamma-32P-ATP after 5 mins by thin layer chromatographic method

Cc1ccccc1-n1c(Cn2nc(I)c3c(N)ncnc32)cc2cccc(F)c2c1=O	> 10 µM
Cc1ccccc1-n1c(Cn2nc(C#C[C@H](C)O)c3c(N)ncnc32)cc2cccc(C)c2c1=O	> 10 µM
COc1ccc(-c2nn(Cc3cc4cccc(C)c4c(=O)n3-c3ccccc3F)c3ncnc(N)c23)cc1OC	> 10 µM
Cc1ccccc1-n1c(Cn2nc(-c3cc(O)cc(F)c3)c3c(N)ncnc32)cc2cccc(F)c2c1=O	> 10 µM
Cc1ccccc1-n1c(Cn2nc(-c3cnn(CCO)c3)c3c(N)ncnc32)cc2cccc(C)c2c1=O	> 10 µM

input: Output measured IC50 for this item: "Nc1ncnc2c1c(-c1cn[nH]c1)nn2Cc1cc2cccc(F)c2c(=O)n1-c1ccccc1F"
output: > 10 µM

input: Output measured IC50 for this item: "CCc1ccccc1-n1c(Cn2nc(-c3cn[nH]c3)c3c(N)ncnc32)cc2cccc(C)c2c1=O"
output: < 10 µM

input: Output measured IC50 for this item: "Cc1ccccc1-n1c(Cn2nc(C#C[C@@H](C)O)c3c(N)ncnc32)cc2cccc(C)c2c1=O"
output: > 10 µM

input: Output measured IC50 for this item: "Cc1cccc2cc(Cn3nc(-c4ccc(F)c(O)c4)c4c(N)ncnc43)n(-c3ccccc3F)c(=O)c12"
output: > 10 µM

input: Output measured IC50 for this item: "COc1cc(F)cc(-c2nn(Cc3cc4cccc(C)c4c(=O)n3-c3ccccc3C)c3ncnc(N)c23)c1"
output: > 10 µM

input: Output measured IC50 for this item: "Cc1ccccc1-n1c(Cn2nc(-c3ccc4cc[nH]c4c3)c3c(N)ncnc32)cc2cccc(C)c2c1=O"
output: > 10 µM

input: Output measured IC50 for this item: "Cc1cccc2cc(Cn3nc(/C=C4/CCNC4=O)c4c(N)ncnc43)n(-c3ccccc3F)c(=O)c12"
output: > 10 µM

###

Assay system: PI3K p110 beta/p85 alpha (Homo sapiens)
Assay name: Inhibition of N-terminal His6-tagged recombinant full-length human p110beta/untagged recombinant full length p85alpha expressed in baculovirus infected Sf21 cells using phosphatidylinositol as substrate in presence of gamma-32P-ATP after 5 mins by thin layer chromatographic method
Parameter: IC50

COc1ccccc1-n1c(Cn2nc(-c3cccc(O)c3)c3c(N)ncnc32)cc2cccc(C)c2c1=O	< 10 µM
Cc1cccc2cc(Cn3nc(-c4ccn[nH]4)c4c(N)ncnc43)n(-c3ccccc3F)c(=O)c12	> 10 µM
Cc1cccc2cc(Cn3nc(-c4cccc(O)c4)c4c(N)ncnc43)n(-c3ccccc3OCCN3CCOCC3)c(=O)c12	> 10 µM
Cc1ccccc1-n1c(Cn2nc(-c3ccc4oc(N)nc4c3)c3c(N)ncnc32)cc2cccc(C)c2c1=O	< 10 µM
Cc1ccccc1-n1c(Cn2nc(-c3ccc(Cl)c(O)c3)c3c(N)ncnc32)cc2ccccc2c1=O	> 10 µM

input: Output measured IC50 for this item: "Cc1cccc2cc(Cn3nc(C#C[C@@H](C)O)c4c(N)ncnc43)n(-c3ccccc3C(C)C)c(=O)c12"
output: < 10 µM

input: Output measured IC50 for this item: "Cc1cccc2cc([C@H](C)Nc3ncnc4[nH]cc(F)c34)n(C3CC3)c(=O)c12"
output: < 0.1 µM

###

Below, each of the compounds is paired with its reported pIC50 value.
Assay system: PI3K p110 beta/p85 alpha (Homo sapiens, UniProt P42338)
Sequence (P42338 whole entry, one chain of several): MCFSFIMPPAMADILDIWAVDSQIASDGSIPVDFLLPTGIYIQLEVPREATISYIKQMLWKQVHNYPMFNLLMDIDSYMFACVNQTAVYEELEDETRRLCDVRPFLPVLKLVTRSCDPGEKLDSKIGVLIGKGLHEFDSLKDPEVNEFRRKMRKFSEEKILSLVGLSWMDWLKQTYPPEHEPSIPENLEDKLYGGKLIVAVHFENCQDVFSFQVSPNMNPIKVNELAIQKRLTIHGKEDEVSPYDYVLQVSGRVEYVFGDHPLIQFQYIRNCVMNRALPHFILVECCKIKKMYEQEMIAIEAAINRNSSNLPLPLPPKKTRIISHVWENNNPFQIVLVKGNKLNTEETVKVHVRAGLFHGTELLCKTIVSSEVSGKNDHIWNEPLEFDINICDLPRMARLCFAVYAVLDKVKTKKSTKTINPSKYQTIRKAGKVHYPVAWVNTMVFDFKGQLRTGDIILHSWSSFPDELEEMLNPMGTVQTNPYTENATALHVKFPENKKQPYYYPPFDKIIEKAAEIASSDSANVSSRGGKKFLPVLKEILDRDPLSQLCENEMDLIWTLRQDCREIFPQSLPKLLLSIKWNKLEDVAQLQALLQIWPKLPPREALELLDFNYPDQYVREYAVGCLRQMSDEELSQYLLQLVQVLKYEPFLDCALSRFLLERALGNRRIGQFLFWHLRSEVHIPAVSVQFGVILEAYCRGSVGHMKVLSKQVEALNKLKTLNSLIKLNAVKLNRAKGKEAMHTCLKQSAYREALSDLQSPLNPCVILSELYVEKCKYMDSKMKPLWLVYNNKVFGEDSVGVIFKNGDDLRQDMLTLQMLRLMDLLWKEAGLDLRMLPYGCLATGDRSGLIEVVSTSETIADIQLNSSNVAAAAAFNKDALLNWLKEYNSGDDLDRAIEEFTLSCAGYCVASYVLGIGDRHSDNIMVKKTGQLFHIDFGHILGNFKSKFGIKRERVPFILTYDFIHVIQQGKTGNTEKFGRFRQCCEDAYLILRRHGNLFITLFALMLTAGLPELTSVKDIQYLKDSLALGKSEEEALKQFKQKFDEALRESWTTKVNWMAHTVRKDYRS
Assay name: Inhibition of N-terminal His6-tagged recombinant full-length human p110beta/untagged recombinant full length p85alpha expressed in baculovirus infected Sf21 cells using phosphatidylinositol as substrate in presence of gamma-32P-ATP after 5 mins by thin layer chromatographic method
pIC50: −log10 of the molar value.

Please review the following examples before continuing.
Cc1cccc2cc(Cn3nc(-c4ccc(O)c(Cl)c4)c4c(N)ncnc43)n(-c3ccccc3F)c(=O)c12	< 5.00
Cc1cccc2cc(Cn3nc(-c4cc(O)cc(F)c4)c4c(N)ncnc43)n(-c3ccccc3C(C)C)c(=O)c12	> 6.00
Cc1cccc2cc(Cn3nc(I)c4c(N)ncnc43)n(C3CCC3)c(=O)c12	< 5.00

We next turn to a different compound, shown below.
input: Output measured pIC50 for this item: "Cc1cccc2cc(Cn3nc(-c4cc(O)cc(F)c4)c4c(N)ncnc43)n(C3CCCCC3)c(=O)c12"
output: > 5.00

###

Below, each of the molecules is paired with its reported IC50 value.
Assay system: Phosphatidylinositol 4,5-bisphosphate 3-kinase catalytic subunit gamma isoform (Homo sapiens, UniProt P48736)
Sequence (P48736 whole entry, canonical isoform): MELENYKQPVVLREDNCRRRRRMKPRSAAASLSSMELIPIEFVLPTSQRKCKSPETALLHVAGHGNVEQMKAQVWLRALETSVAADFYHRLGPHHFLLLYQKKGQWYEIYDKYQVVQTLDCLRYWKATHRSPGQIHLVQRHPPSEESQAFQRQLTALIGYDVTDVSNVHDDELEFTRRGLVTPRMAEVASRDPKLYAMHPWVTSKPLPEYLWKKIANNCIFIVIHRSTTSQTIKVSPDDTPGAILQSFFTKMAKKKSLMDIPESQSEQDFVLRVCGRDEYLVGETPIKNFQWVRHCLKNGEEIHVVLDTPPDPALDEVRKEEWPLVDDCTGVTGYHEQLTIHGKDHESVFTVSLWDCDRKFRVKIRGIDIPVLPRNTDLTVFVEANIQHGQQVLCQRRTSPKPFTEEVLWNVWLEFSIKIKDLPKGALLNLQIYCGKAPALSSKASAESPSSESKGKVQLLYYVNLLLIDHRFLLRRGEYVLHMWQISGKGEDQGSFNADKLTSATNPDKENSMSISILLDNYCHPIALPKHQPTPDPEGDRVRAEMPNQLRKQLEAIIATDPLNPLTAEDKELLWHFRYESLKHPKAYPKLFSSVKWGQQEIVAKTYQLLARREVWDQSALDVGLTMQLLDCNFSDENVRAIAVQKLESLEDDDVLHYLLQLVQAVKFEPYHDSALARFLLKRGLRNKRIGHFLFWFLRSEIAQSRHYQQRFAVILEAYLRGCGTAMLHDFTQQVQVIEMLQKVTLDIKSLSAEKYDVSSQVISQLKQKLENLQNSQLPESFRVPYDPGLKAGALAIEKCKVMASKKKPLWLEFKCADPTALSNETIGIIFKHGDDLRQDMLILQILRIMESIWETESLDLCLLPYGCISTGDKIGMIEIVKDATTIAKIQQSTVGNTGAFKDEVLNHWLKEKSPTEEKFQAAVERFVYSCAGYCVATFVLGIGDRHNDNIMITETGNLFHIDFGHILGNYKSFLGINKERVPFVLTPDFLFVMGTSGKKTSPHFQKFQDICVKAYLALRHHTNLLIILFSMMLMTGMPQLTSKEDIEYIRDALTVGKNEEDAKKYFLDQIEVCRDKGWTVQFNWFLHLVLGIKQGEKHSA
Assay name: Inhibition of recombinant human C-terminal His6-tagged p110gamma expressed in insect cells using phosphatidylinositol as substrate in presence of gamma-32P-ATP after 5 mins by thin layer chromatographic method

input: Output measured IC50 for this item: "Cc1ccccc1-n1c(Cn2nc(C#CC3CC3)c3c(N)ncnc32)cc2cccc(C)c2c1=O"
output: < 1000 nM

input: Output measured IC50 for this item: "Cc1cccnc1-n1c(Cn2nc(-c3cc(O)cc(F)c3)c3c(N)ncnc32)cc2ccccc2c1=O"
output: < 1000 nM

input: Output measured IC50 for this item: "Cc1cccc2cc([C@H](C)Nc3ncnc4[nH]cc(Br)c34)n(C3CC3)c(=O)c12"
output: < 100 nM

input: Output measured IC50 for this item: "Cc1cccc2cc([C@H](C)Nc3ncnc4[nH]cnc34)n(C3CCC3)c(=O)c12"
output: < 100 nM

input: Output measured IC50 for this item: "Cc1ccccc1-n1c(Cn2nc(-c3ccc4oc(N)nc4c3)c3c(N)ncnc32)cc2cccc(C)c2c1=O"
output: < 100 nM

input: Output measured IC50 for this item: "Cc1cccc2cc(Cn3nc(I)c4c(N)ncnc43)n(C)c(=O)c12"
output: < 10000 nM

input: Output measured IC50 for this item: "C[C@H](Nc1ncnc2[nH]cnc12)c1cc2cccc(Cl)c2c(=O)n1C1CC1"
output: < 100 nM

input: Output measured IC50 for this item: CCC(Nc1ncnc2[nH]cnc12)c1cc2cccc(C)c2c(=O)n1-c1ccccc1 (centres undefined)
output: < 100 nM

input: Output measured IC50 for this item: "C=Cc1nn(Cc2cc3cccc(C)c3c(=O)n2-c2ccccc2C)c2ncnc(N)c12"
output: < 1000 nM

input: Output measured IC50 for this item: "Cc1ccccc1-n1c(Cn2nc(C#CCO)c3c(N)ncnc32)cc2cccc(C)c2c1=O"
output: < 1000 nM

input: Output measured IC50 for this item: "Cc1cccc2cc([C@H](C)Nc3ncnc4[nH]cc(Cl)c34)n(-c3ccccc3)c(=O)c12"
output: < 100 nM

input: Output measured IC50 for this item: "Cc1cccc2cc(Cn3nc(-c4cc(O)cc(F)c4)c4c(N)ncnc43)n(C(C)C)c(=O)c12"
output: < 1000 nM

input: Output measured IC50 for this item: "Cc1cccc2cc(Cn3nc(-c4cn[nH]c4)c4c(N)ncnc43)n(-c3ccccc3Cl)c(=O)c12"
output: < 1000 nM

input: Output measured IC50 for this item: "Cc1cccc2cc(Cn3cnc4c(N)ncnc43)n(-c3ccccc3F)c(=O)c12"
output: > 10000 nM

input: Output measured IC50 for this item: "Cc1cccc2cc(Cn3nc(I)c4c(N)ncnc43)n(-c3ccccc3F)c(=O)c12"
output: < 1000 nM

input: Output measured IC50 for this item: "Cc1ccccc1-n1c(Cn2nc(-c3cnn(CCO)c3)c3c(N)ncnc32)cc2cccc(C)c2c1=O"
output: < 1000 nM

input: Output measured IC50 for this item: "Cc1cccc2cc(Cn3nc(C#N)c4c(N)ncnc43)n(-c3ccccc3F)c(=O)c12"
output: > 10000 nM

input: Output measured IC50 for this item: "Cc1ccccc1-n1c(Cn2nc(-c3ccc4nc(N)oc4c3)c3c(N)ncnc32)cc2cccc(C)c2c1=O"
output: < 100 nM

input: Output measured IC50 for this item: "Cc1cccc2cc([C@H](C)Nc3ncnc4[nH]ccc34)n(-c3ccccc3)c(=O)c12"
output: < 100 nM

###

Assay system: PI3-kinase p110-delta/p85-alpha (Homo sapiens)
Sequence (P27986 whole entry): as the sequence (P27986 whole entry) above
Sequence (O00329 whole entry): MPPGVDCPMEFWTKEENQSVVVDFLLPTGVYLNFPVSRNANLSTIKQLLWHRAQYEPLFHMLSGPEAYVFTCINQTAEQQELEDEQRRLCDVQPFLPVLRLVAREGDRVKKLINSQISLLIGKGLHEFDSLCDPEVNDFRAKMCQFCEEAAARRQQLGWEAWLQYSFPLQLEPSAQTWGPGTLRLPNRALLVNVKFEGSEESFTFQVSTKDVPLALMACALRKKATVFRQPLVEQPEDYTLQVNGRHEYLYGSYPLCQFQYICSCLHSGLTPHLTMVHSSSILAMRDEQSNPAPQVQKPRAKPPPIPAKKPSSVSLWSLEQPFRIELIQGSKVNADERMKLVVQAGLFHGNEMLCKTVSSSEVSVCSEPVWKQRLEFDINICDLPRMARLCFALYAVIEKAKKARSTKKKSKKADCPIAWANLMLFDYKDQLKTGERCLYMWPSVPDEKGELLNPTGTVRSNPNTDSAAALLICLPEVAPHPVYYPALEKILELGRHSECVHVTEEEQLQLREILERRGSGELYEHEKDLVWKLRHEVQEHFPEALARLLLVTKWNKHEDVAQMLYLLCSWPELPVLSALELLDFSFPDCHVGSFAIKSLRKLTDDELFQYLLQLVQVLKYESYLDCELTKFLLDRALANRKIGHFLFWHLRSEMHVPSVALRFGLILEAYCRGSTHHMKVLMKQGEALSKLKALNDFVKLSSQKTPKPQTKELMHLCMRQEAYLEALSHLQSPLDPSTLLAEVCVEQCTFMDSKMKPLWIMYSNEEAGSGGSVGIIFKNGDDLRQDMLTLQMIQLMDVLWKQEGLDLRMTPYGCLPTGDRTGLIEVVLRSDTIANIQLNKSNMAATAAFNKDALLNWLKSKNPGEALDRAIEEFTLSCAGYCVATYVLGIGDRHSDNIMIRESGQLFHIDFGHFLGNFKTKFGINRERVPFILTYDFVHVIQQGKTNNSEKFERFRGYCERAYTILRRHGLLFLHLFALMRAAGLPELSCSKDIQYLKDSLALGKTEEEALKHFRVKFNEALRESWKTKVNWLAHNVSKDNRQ
Assay name: Inhibition of N-terminal His6-tagged recombinant full-length human p110delta/untagged recombinant full length p85alpha expressed in baculovirus infected Sf21 cells using phosphatidylinositol as substrate in presence of gamma-32P-ATP after 5 mins by thin layer chromatographic method
Below, each of the compounds is paired with its reported IC50 value.

Cc1cccc2cc(Cn3nc(-c4cccc(O)c4)c4c(N)ncnc43)n(-c3ccccc3F)c(=O)c12	< 100 nM

input: Output measured IC50 for this item: "Cc1cccc2cc(Cn3nc(Cl)c4c(N)ncnc43)n(-c3ccccc3F)c(=O)c12"
output: < 1000 nM

input: Output measured IC50 for this item: "Cc1ccccc1-n1c(Cn2nc(-c3ccc4ncnc(N)c4c3)c3c(N)ncnc32)cc2cccc(C)c2c1=O"
output: < 100 nM
